Entry source: ChEMBL document CHEMBL1124836

# experiment: Ratio of A1-receptor binding to that of A2-receptor binding
Answer each item with its documented Ratio.
I'd appreciate a reply containing only the number, no unit.

# compound `CCNC(=O)[C@H]1O[C@@H](n2cnc3c(N)nc(NCCc4ccc(CCC(=O)OC)cc4)nc32)[C@H](O)[C@@H]1O` ; its Ratio = 140

What the record says about `CCNC(=O)[C@H]1O[C@@H](n2cnc3c(N)nc(NCCc4ccc(F)cc4)nc32)[C@H](O)[C@@H]1O` : Ratio is 154

The recorded Ratio for entry `CCNC(=O)[C@H]1O[C@@H](n2cnc3c(N)nc(NCc4ccccc4)nc32)[C@H](O)[C@@H]1O` equals 7.6

The measured Ratio associated with `CCNC(=O)[C@H]1O[C@@H](n2cnc3c(N)nc(NCCc4ccc(CC(=O)O)cc4)nc32)[C@H](O)[C@@H]1O` reads 109

For reference, reported Ratio for `CNC(=O)[C@H]1O[C@@H](n2cnc3c(N)nc(NCCc4ccccc4)nc32)[C@H](O)[C@@H]1O` stands at 69

Please fill in: Ratio reported for CCNC(=O)[C@H]1OC(n2cnc3c(N)nc(NCCc4ccc(Cl)cc4)nc32)[C@H](O)[C@@H]1O (stereo partly specified) = 201

====

# systemUnderTest: Adenosine receptor A1 (Rattus norvegicus)
# Sequence (P25099 whole entry): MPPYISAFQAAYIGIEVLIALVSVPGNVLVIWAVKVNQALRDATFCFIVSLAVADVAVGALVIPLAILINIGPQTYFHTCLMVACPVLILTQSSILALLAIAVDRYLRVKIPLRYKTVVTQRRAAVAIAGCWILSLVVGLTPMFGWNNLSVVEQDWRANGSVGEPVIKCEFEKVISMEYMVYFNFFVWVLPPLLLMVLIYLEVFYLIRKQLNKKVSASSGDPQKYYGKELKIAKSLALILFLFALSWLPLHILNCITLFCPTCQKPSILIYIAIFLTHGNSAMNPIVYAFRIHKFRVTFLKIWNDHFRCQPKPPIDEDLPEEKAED
# experiment: Adenosine A1 receptor binding was measured in adenosine deaminase (ADA) pretreated rat cortical membranes using [3H]cyclohexyladenosine in the presence of 2-chloroadenosine
endpoint: pKi
// pKi here means minus log10 of the molar concentration (mol/L)

Entry CCNC(=O)[C@H]1OC(n2cnc3c(N)nc(NCCc4ccc(Cl)cc4)nc32)[C@H](O)[C@@H]1O (some centres undefined) , pKi reported as 5.82

Lab note: measured pKi of `CCNC(=O)[C@H]1O[C@@H](n2cnc3c(N)nc(NCCc4ccccc4)nc32)[C@H](O)[C@@H]1O` was 6.33

# pKi (molecule: CC(=O)O[C@]1(C(C)=O)CC[C@H]2[C@@H]3C=C(Cl)C4=CC(=O)[C@@H]5C[C@@H]5[C@]4(C)[C@H]3CC[C@@]21C [CYPROTERONE ACETATE] ) is 8.89

Kindly note the recorded pKi for `CCNC(=O)[C@H]1O[C@@H](n2cnc3c(N)nc(N(C)CCc4ccccc4)nc32)[C@H](O)[C@@H]1O` , which is 4.92
